- Test system: DU-145
- experiment.description: Antiproliferative activity against human DU-145 cells assessed as reduction in cell viability
- Format: functional, cell-based
- assay.setup: Homo sapiens, DU-145
pIC50: −log10 of the molar value.
reported.metric: pIC50

{"compound": "CC(O)(C[S+]([O-])c1ccc(F)cc1F)C(=O)Nc1ccc([N+](=O)[O-])cc1C(F)(F)F (stereo unspecified)", "experimental.target": "DU-145", "pIC50": "< 4.00"}

List pIC50 for every entry below, keeping the order given.
1. CC(O)(C[S+]([O-])c1ccc(F)c(F)c1)C(=O)Nc1ccc([N+](=O)[O-])cc1C(F)(F)F (single isomer, unassigned)
2. CC(O)(C[S+]([O-])c1ccc(OC(F)(F)F)cc1)C(=O)Nc1ccc([N+](=O)[O-])cc1C(F)(F)F (stereo unspecified)

Response:
["< 4.00", "< 4.00"]

Below is a list of compounds. For each, state its recorded pIC50.
1. CC(O)(C[S+]([O-])c1ccccn1)C(=O)Nc1ccc(C#N)c(C(F)(F)F)c1 (stereo unspecified)
2. CC(O)(C[S+]([O-])c1ccc(C(F)(F)F)cn1)C(=O)Nc1ccc([N+](=O)[O-])cc1C(F)(F)F (stereo unspecified)
3. CC(O)(C[S+]([O-])c1ccccn1)C(=O)Nc1ccc([N+](=O)[O-])cc1C(F)(F)F (stereo unspecified)

Response:
< 4.00
< 4.00
< 4.00
